Answer each item with its documented logRA.
Biological target: UniProt P22303
Sequence (P22303 whole entry): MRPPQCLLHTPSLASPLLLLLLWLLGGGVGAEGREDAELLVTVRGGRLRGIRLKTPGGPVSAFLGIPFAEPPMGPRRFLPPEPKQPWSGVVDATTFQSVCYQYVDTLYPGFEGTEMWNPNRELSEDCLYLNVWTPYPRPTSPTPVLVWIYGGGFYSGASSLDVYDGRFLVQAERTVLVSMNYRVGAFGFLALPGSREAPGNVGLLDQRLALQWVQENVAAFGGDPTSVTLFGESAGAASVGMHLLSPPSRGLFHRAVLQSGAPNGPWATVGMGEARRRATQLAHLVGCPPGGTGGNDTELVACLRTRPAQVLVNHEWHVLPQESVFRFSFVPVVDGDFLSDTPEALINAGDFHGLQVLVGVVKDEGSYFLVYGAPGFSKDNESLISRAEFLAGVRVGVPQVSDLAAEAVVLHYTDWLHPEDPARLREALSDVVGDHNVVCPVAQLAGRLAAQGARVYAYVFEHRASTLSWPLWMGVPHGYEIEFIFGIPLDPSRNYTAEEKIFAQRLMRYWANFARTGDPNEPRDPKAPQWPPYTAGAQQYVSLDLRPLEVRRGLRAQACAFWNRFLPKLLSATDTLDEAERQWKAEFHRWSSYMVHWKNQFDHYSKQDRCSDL

Challenge: Kindly state the measured logRA obtained for `CCOC(=O)c1c(C)nc2nc3c(c(N)c2c1-c1ccccc1)CCCC3` with UniProt P22303.
Response given: -0.801

Challenge: Same question, `CCOC(=O)c1c(C)nc2nc3c(c(N)c2c1-c1ccc(F)cc1)CCCCC3` this time
Response given: -1.48

Challenge: Same question, CCOC(=O)C1=C(C)Oc2nc3c(c(N)c2C1c1ccc(OC)cc1)CCCC3 (stereo not given) this time
Response given: -0.825

Challenge: Same question, CCOC(=O)C1=C(C)Oc2nc3c(c(N)c2C1c1ccccc1)CCC3 (stereo not given) this time
Response given: -1.48

Challenge: Same question, `CCOC(=O)c1c(C)nc2nc3c(c(N)c2c1-c1cccs1)CCC3` this time
Response given: -2.3
